- Test system: MS2 coat protein
- experiment_notes: apparent KD of MS2 coat protein; higher = weaker reporter binding
- measurement_parameters: Eterna round: R107; input ligand: theophylline 2 mM
Reported apparent KD of MS2 coat protein values follow for various sequences
API: value field is a number in nM; no unit string.

Below, 5 sequences whose answers are already recorded.
UUUUUCGCGGGCGAUACCAGCUUGAUCGUACUGGCCUGGUACAUGAGGAUCACCCAUGUAAGCCCUUGGCAGCGCGCGGGAGAAG [Exclusion - Theophylline B Attempt #1 (HarryS)]    20.2
ACAUGAGGAUCACCCAUGUAUGACUAUCCUCGAGGACCGGUACGGCCGCCACUCGAACGAGUGGCUCGCGAGUGCGCACUCGCGG [5'end-1]    12.9
ACACAUGACAGAAGGAGCGGAAUGAACACACAUGAGGAUCACCCAUGUUUUUUUUGUGUUUUCCAGGUAGGUCGCUGACAUGAGG [#20 Same State - Arginine B]    9.54
GUUGGACUUUCGGCCGCCACUGAGAGAGUCAUGUGAACAUGAGGAUCACCCAUGUAAUAUAUAUACAGGACCGGGAGGGUUGUAA [4.M]    13.9
GGGCGCGUGGACCGGCGUGCUCCGCUCCGUCGAGGACCGGUACGGCCGCCACUCGACAUGAGGAUCACCCAUGUGCGAGCUCGCG [#1 Exclusion - Tryptophan A Attempt #15 (HarryS)]    32.1

Lookup: Observed apparent KD of MS2 coat protein on MS2 coat protein for ACUGCUUUAGCGGCCGCCACUACAUGGACACUUACACUUUCUUGUUACAUGAGGAUCACCCAUGUUAGGACCGGGCUUGUACGGA [theeternabot_exclusion_MS2_Trp_B_31] , please.
Found: 68.4

Lookup: Observed apparent KD of MS2 coat protein on MS2 coat protein for CCUCAAUAGACGGCCGCCACUGAAACAUGAGGAUACAUGAGGAUCACCCAUGUGGGUGUGUUACGCAGGACCGGGUCAAGACCCG [Tryp B SS t1] , please.
Found: 1280

Lookup: Observed apparent KD of MS2 coat protein on MS2 coat protein for GCAUCCUAGUCGGCCGCCACUGACAUGAGGAUCACCCAUGUACAUGAGGAUCACCCAUGUUGUAACAGGACCGGGACUAGGAUGC [SS Tryp B #18] , please.
Found: 141

Lookup: Observed apparent KD of MS2 coat protein on MS2 coat protein for UGUAUGGACUGAAGGAGCGCCUCAAAAUAACUUGAGGAUCACCCAAGUAAGGCGAAAGCCGGGCAGGUAGGUCGCAGUCCAUACU [ArgBX 3] , please.
Found: 15.2

Lookup: Observed apparent KD of MS2 coat protein on MS2 coat protein for ACGAACGCACCUGAGGAUCACCCAGGUGAUACCAGCCUGGAAACAGGCCCUUGGCAGCACCUAAAAUAAAGGUAACGUUCGAAUA [TheoAX7 #MicroSwitchBubble #AlternativeMS2] , please.
Found: 173

Lookup: Observed apparent KD of MS2 coat protein on MS2 coat protein for UCGCUCGCCGUAAGGCGAGCGAGUUGCGAUACCAGCCCGGAAACGGGCCCUUGGCAGCGCACAUGAGGAUCACCCAUGUCAUGUU [#1 Exclusion - Theophylline A Attempt #5 (HarryS)] , please.
Found: 24.3

Lookup: Observed apparent KD of MS2 coat protein on MS2 coat protein for ACAUGAAGAACAGCGGUGGGCGCGCUCGAUACCAGUACUUUGAAAUACCCUUGGCAGCGACAUGAGGAUCACCCAUGUGAGAUGA [XTheo A #3] , please.
Found: 49.5

Lookup: Observed apparent KD of MS2 coat protein on MS2 coat protein for AAACAUGAGGAUCACCCAUGUAAUUCAGAAGGAGCGUCAUUAUUGACAGGUAGGUCGCUGAUAAAAUUUCUAUACAUCAUGUAUA [JR_SSArginiA_Sub013] , please.
Found: 13

Lookup: Observed apparent KD of MS2 coat protein on MS2 coat protein for GAAAAUCCCGUACAUGAGGAUCACCCAUGUCGAGGACCGGUACGGCCGCCACUCGCACGCAUUGCAUUGGAGGGUCAGGUACGAG [Erenerrati] , please.
Found: 29.2

// data source = the supplement of paper PMC9170038
